Recorded values, source PubChem BioAssay AID652110.

Molecular target: Serine/threonine-protein phosphatase PP1-alpha catalytic subunit (Homo sapiens)
Assay: PP1 inhibitors on glycogen phosphorylase dephosphorylation, late-stage follow-up, PP1 inhibitor probe project, biochemical, radiolabel, 32P-phosphorylase substrate, single concentration (AID 652110)
Conditions: PP1 dephosphorylation of 32P-glycogen phosphorylase, at 50 µM, hits give high values
Outcome label depends on inhibition relative to 20%: at/above gives y, below gives n.

Check this compound for inhibition at or above 20%: c1ccc(-c2nccc(-c3ccc(-n4cnc5ccccc54)cc3)n2)nc1
y

Check this compound for inhibition at or above 20%: CCOC(=O)c1cnc(-n2nc(C)cc2C)nc1NC(C)c1ccccc1 (centres undefined)
n

Check this compound for inhibition at or above 20%: COc1cnc(-c2ccccn2)nc1Oc1cccc(C(F)(F)F)c1
n

Check this compound for inhibition at or above 20%: Cc1ccc(C(=O)NC2(O)C(=O)c3ccccc3C2=O)cc1C
y

Check this compound for inhibition at or above 20%: CCOc1ccc(NC(=S)Nc2ccc3nsnc3c2)cc1
n

Check this compound for inhibition at or above 20%: Cc1ccc(-n2nc(C(=O)O)cc2-c2ccc(Cl)cc2)cc1
n

Check this compound for inhibition at or above 20%: Oc1ccccc1/C=N/Nc1cc(N2CCCC2)nc(N2CCCC2)n1
n

====

Molecular target: Serine/threonine-protein phosphatase PP1-alpha catalytic subunit (Homo sapiens)
Test: PP1 inhibitors on glycogen phosphorylase dephosphorylation, late-stage follow-up, PP1 inhibitor probe project, biochemical, radiolabel, 32P-phosphorylase substrate, single concentration (AID 652110)
Details: PP1 dephosphorylation of 32P-glycogen phosphorylase, at 50 µM, hits give high values
inhibition values by entry
Answer format: numeric, % implied, no suffix.

Reported inhibition ( COc1cnc(-c2ccccn2)nc1Sc1ccc(Cl)cc1 ) = 12.2

Reported inhibition ( COc1ccc(NC(=S)Nc2ccc3nsnc3c2)cc1 ) = 13.3

Reported inhibition ( CC(=O)C(C(C)=O)C1(O)C(=O)c2ccccc2C1=O ) = 24.6

Reported inhibition ( Nc1cc2nsnc2cc1Br ) = 27.9

Reported inhibition ( O=C(Nc1nc(-c2ccccn2)cs1)C1CC(=O)N(c2ccc3c(c2)OCCO3)C1 (configuration not stated) ) = 19.7

Reported inhibition ( COc1ccc(CN2C(=O)Cc3c2nc(N)c2c(N)nc(N4CCCCC4)c(C#N)c32)cc1 ) = 45.7

Reported inhibition ( COc1ccc(NC(=O)C2C3CCC(O3)C2C(=O)O)c(OC)c1 (configuration not stated) ) = 73.9

Reported inhibition ( c1ccc(Nc2nc(-c3ccccn3)cs2)cc1 ) = 13.2

Reported inhibition ( CCCN(CC1CC1)c1nc(N)c2c(N)nc(OC)cc2c1C#N ) = 8.48

Reported inhibition ( O=C(NC1(O)C(=O)c2ccccc2C1=O)c1c(Cl)cccc1Cl ) = 33.1

Reported inhibition ( O=C(O)c1n[nH]nc1-c1ccccc1 ) = 22.4

Reported inhibition ( CCOC(=O)c1cnc(-n2nc(C)cc2C)nc1NCCc1ccccc1 ) = 16.9

====

Target: Serine/threonine-protein phosphatase PP1-alpha catalytic subunit (Homo sapiens) (UniProt P62136)
Sequence (P62136 whole entry, looked up): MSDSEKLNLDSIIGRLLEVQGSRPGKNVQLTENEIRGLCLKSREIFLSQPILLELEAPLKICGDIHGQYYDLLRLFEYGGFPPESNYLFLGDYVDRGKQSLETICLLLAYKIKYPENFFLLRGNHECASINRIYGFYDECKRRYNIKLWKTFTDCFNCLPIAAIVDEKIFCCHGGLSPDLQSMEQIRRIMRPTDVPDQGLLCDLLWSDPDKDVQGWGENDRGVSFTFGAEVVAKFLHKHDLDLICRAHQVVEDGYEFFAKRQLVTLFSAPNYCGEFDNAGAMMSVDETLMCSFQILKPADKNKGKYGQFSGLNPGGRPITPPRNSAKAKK
Assay: PP1 inhibitors on glycogen phosphorylase dephosphorylation, late-stage follow-up, PP1 inhibitor probe project, biochemical, radiolabel, 32P-phosphorylase substrate, single concentration (AID 652110)
Settings: PP1 dephosphorylation of 32P-glycogen phosphorylase, at 50 µM, hits give high values
inhibition values by entry
Answer format: numeric, % implied, no suffix.

Sample answers from the record:
COc1cnc(-c2ccccn2)nc1Sc1ccccc1 ... 0.752
CCOC(=O)c1cnc(-n2cc(C)cn2)nc1NCc1ccc2c(c1)OCO2 ... 21.6
COc1cnc(-c2ccccn2)nc1Sc1ccccc1Cl ... 9.17
O=C(O)c1cc(-c2ccc(Cl)c(Cl)c2)n(-c2ccc(F)cc2)n1 ... 8.75
COc1ccc(Cl)cc1C(=O)Nc1cccc(-c2ccc3nncn3n2)c1 ... 61.7
CN1CCN(C(c2ccccn2)c2cc(Cl)c3cccnc3c2O)CC1 (stereo not given) ... 97
O=C(NC1(O)C(=O)c2ccccc2C1=O)c1ccc(C(F)(F)F)cc1 ... 39.2
Cc1[nH]n(-c2ccccc2)c(=O)c1C(c1ccc([N+](=O)[O-])cc1)c1c(C)[nH]n(-c2ccccc2)c1=O ... 48.3

Reported inhibition ( CCn1c2ccccc2c2cc(NC(=O)COC(=O)c3ccc(NC(=O)CC#N)cc3)ccc21 ) = 74.6

Reported inhibition ( Cc1cc(C)c(S(=O)(=O)/N=C2\C=C(Sc3ncn[nH]3)C(=O)c3ccccc32)cc1C ) = 30.5

====

Target: Serine/threonine-protein phosphatase PP1-alpha catalytic subunit (Homo sapiens) (UniProt P62136)
Experiment: PP1 inhibitors on glycogen phosphorylase dephosphorylation, late-stage follow-up, PP1 inhibitor probe project, biochemical, radiolabel, 32P-phosphorylase substrate, single concentration (AID 652110)
Details: PP1 dephosphorylation of 32P-glycogen phosphorylase, at 50 µM
Active and inactive are the calls of the source. The rule behind the calls is not given here.
# output must be one of active, inactive

Use the examples below as a reference point.
CCCCn1c(NC(=O)c2ccco2)c(C(=O)OCC)c2nc3ccccc3nc21 ... inactive
CCOC(=O)c1sc2nc3c(SCC(=O)O)cc(C(=O)c4cc(F)ccc4O)cn3c(=O)c2c1C ... active
O=C(O)c1cc(-c2ccc(Cl)cc2)n(-c2cccc(Cl)c2)n1 ... inactive
CC(C)(CS(=O)(=O)[O-])NC(=O)CC[N+](C)(C)CCO ... inactive
COc1ccc(C(=O)c2nccc3cc(OC)c(OC)cc23)cc1OC ... inactive
COc1ccc(OCCCC(=O)Nc2nc(-c3ccccn3)cs2)cc1 ... inactive

Look up the recorded call for Cc1ccc(C(=O)NNc2cc(N3CCCC3)nc(N3CCCC3)n2)cc1 in this test.
inactive

Look up the recorded call for COc1ccccc1Sc1nc(-c2ccccn2)ncc1OC in this test.
inactive

Look up the recorded call for COc1cnc(-c2ccccn2)nc1Sc1ccc(F)cc1 in this test.
inactive

Look up the recorded call for COc1ccc(Sc2nc(-c3ccccn3)ncc2OC)cc1 in this test.
inactive

Look up the recorded call for CCOC(=O)c1nn(-c2ccc(C)cc2)c(=O)c2c(N)scc12 in this test.
inactive

Look up the recorded call for Nc1nc(-c2ccccn2)nc(N)c1Cc1ccc(Cl)cc1Cl in this test.
inactive

Look up the recorded call for COc1ccc2c(Cl)c(C(=O)N/N=C/c3ccc4c(c3)OCO4)sc2c1 in this test.
inactive

Look up the recorded call for O=C1Nc2ccccc2N2CCCC12 (stereo not drawn) in this test.
inactive

====

Target: Serine/threonine-protein phosphatase PP1-alpha catalytic subunit (Homo sapiens) (UniProt P62136)
Assay: PP1 inhibitors on glycogen phosphorylase dephosphorylation, late-stage follow-up, PP1 inhibitor probe project, biochemical, radiolabel, 32P-phosphorylase substrate, single concentration (AID 652110)
Settings: PP1 dephosphorylation of 32P-glycogen phosphorylase, at 50 µM, hits give high values
inhibition values by entry
Answer format: numeric, % implied, no suffix.

Sample answers from the record:
O=S(=O)(Cc1cc(NCc2ccccc2)nc(-c2ccccn2)n1)c1ccccc1 ... 11.7
CCOC(=O)c1cnc(-n2nc(C)cc2C)nc1NC1CCCCC1 ... 16.3
CCOC(=O)c1cnc(-n2nc(C)cc2C)nc1NCc1ccccc1 ... 7.11

Reported inhibition ( COc1cc(Br)c(C(=O)c2nccc3cc(OC)c(OC)cc23)cc1OC ) = 9.5

Reported inhibition ( O=C(O)C1C2CCC(O2)C1C(=O)NC1CCCCC1 (stereo unspecified) ) = 66.1

Reported inhibition ( O=C(O)c1cc(-c2ccc(Cl)c(Cl)c2)n(-c2ccccc2)n1 ) = 12.2

====

Biological target: Serine/threonine-protein phosphatase PP1-alpha catalytic subunit (Homo sapiens) (UniProt P62136)
Assay: PP1 inhibitors on glycogen phosphorylase dephosphorylation, late-stage follow-up, PP1 inhibitor probe project, biochemical, radiolabel, 32P-phosphorylase substrate, single concentration (AID 652110)
Conditions: PP1 dephosphorylation of 32P-glycogen phosphorylase, at 50 µM
Activity calls are given as the source filed them. No rule for the calls is given here.
# output must be one of active, inactive

Use the examples below as a reference point.
CCOC(=O)C1=C(C)OC2(O)c3ccccc3C(=O)C12O (configuration not stated) ... inactive
N#Cc1c(-c2ccc(Cl)cc2)cc(-c2cccs2)nc1SCC(=O)O ... active
O=C(NC1(O)C(=O)c2ccccc2C1=O)c1ccccc1 ... inactive
COc1cnc(-c2ccccn2)nc1Sc1cccc(Cl)c1 ... inactive
O=C1CCCC2=C1C1(O)C(=O)c3ccccc3C1(O)O2 (configuration not stated) ... inactive

Look up the recorded call for Cc1nnc(NC(=O)C2C3C=CC(O3)C2C(=O)O)s1 (configuration not stated) in this test.
inactive

Look up the recorded call for Oc1cccc(/C=N/Nc2cc(N3CCCC3)nc(N3CCCC3)n2)c1 in this test.
inactive

====

Target: Serine/threonine-protein phosphatase PP1-alpha catalytic subunit (Homo sapiens)
Test: PP1 inhibitors on glycogen phosphorylase dephosphorylation, late-stage follow-up, PP1 inhibitor probe project, biochemical, radiolabel, 32P-phosphorylase substrate, single concentration (AID 652110)
Details: PP1 dephosphorylation of 32P-glycogen phosphorylase, at 50 µM, hits give high values
attributeMeasured: inhibition (%)
Answer format: numeric, % implied, no suffix.

Clc1ccc(-n2nnnc2-c2cnc(-c3ccccn3)nc2-c2cccs2)cc1 ... 0.651

Pending compound:
Reported inhibition ( COc1ccc(Cn2c(N)c(C(=O)NCc3ccco3)c3nc4ccccc4nc32)cc1OC ) = 8.99
